# System: 377384-186-R-J1-PDC complex spheroid viability
# Test name: Anticancer human tumor 377384-186-R-J1-PDC patient-derived pancreatic carcinoma cell line growth inhibition [CLK]
# Settings: second compound 0.1 µM; first compound 0.1 µM; stronger effect = lower value
# label 1 = viability, T/C below 60% (exclusive); label 0 = viability, T/C at/above 60%

- Molecule: "C=CC(=O)N1CCN(c2nc(=O)n(-c3c(C)ccnc3C(C)C)c3nc(-c4c(O)cccc4F)c(F)cc23)C(C)C1 (stereo not given) + CN1CCN(c2cc(C(=O)Nc3cc4cc(-c5cnn(C)c5)ccc4cn3)ccn2)CC1"
  Answer label: "label 0"
- Molecule: "CCCS(=O)(=O)Nc1ccc(F)c(C(=O)c2c[nH]c3ncc(-c4ccc(Cl)cc4)cc23)c1F + CNC(=O)c1ccc(Nc2nc(OC3CCCC3)c3c(-c4ccc5nc(C)oc5c4)c[nH]c3n2)c(OC)c1"
  Answer label: "label 0"
- Molecule: "COc1cccc2c1C(=O)c1c(O)c3c(c(O)c1C2=O)CC(O)(C(=O)CO)CC3OC1CC(N)C(O)C(C)O1 (stereo not given) + CN1CCN(c2cc(C(=O)Nc3cc4cc(-c5cnn(C)c5)ccc4cn3)ccn2)CC1"
  Answer label: "label 1"
- Molecule: "Nc1ccn(C2OC(CO)C(O)C2(F)F)c(=O)n1 (stereo not given) + CN1CCN(c2cc(C(=O)Nc3cc4cc(-c5cnn(C)c5)ccc4cn3)ccn2)CC1"
  Answer label: "label 1"
- Molecule: "CC1(C)CCC(CN2CCN(c3ccc(C(=O)NS(=O)(=O)c4ccc(NCC5CCOCC5)c([N+](=O)[O-])c4)c(Oc4cnc5[nH]ccc5c4)c3)CC2)=C(c2ccc(Cl)cc2)C1 + CNC(=O)c1ccc(Nc2nc(OC3CCCC3)c3c(-c4ccc5nc(C)oc5c4)c[nH]c3n2)c(OC)c1"
  Answer label: "label 1"

----------
# Test system: 377384-186-R-J1-PDC complex spheroid viability
# Test name: Anticancer human tumor 377384-186-R-J1-PDC cell line growth inhibition [CLK];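 also: luminescence signal used as a stand-in for viable cells; spheroids exposed to agents for 7 days before reading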
# Settings: second compound 0.1 µM; first compound 0.316 µM; stronger effect = lower value
# From the text: A high-throughput screen of multi-cell type tumor spheroids was designed to identify active combinations of […] and targeted small molecules. Complex spheroids include a stromal component modeled by human endothelial cells (HUVEC) and fibroblasts modeled by human mesenchymal stem cells (MSCs). […] Compounds. […] If the clinical Cmax for an agent had not been determined, the highest concentration tested was 10 microM. […]
Catalogue of compounds with associated viability, T/C

- Compound: "CC1(C)CCC(CN2CCN(c3ccc(C(=O)NS(=O)(=O)c4ccc(NCC5CCOCC5)c([N+](=O)[O-])c4)c(Oc4cnc5[nH]ccc5c4)c3)CC2)=C(c2ccc(Cl)cc2)C1 + CN1CCN(c2cc(C(=O)Nc3cc4cc(-c5cnn(C)c5)ccc4cn3)ccn2)CC1"
  viability, T/C, %: 89.8
- Compound: "C#Cc1c(F)ccc2cc(O)cc(-c3ncc4c(N5CC6CCC(C5)N6)nc(OCC56CCCN5CC(F)C6)nc4c3F)c12 (stereo not drawn) + CN1CCN(c2cc(C(=O)Nc3cc4cc(-c5cnn(C)c5)ccc4cn3)ccn2)CC1"
  viability, T/C, %: 3.82
- Compound: "COc1c(OCCCN2CCOCC2)ccc2c3n(c(=NC(=O)c4cnc(N)nc4)nc12)CCN3 + CNC(=O)c1ccc(Nc2nc(OC3CCCC3)c3c(-c4ccc5nc(C)oc5c4)c[nH]c3n2)c(OC)c1"
  viability, T/C, %: 17.4
